# protocol-text: apoptosis induction in mouse embryonic fibroblasts – cell-based, wild-type MEF, caspase luminescence, dry powder, set 2, counter-screen for Bcl2-A1 inhibitor project, dose response (AID 504392)
# condition-set: CaspaseGlo luminescence, 3 h; series mostly up to 35 µM
Calls of active or inactive are those of the source.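 Rule for the calls: active = fitted curve rising past 10% caspase activation at or below the top valid dose; inactive = activity opposite to the expected rise, or the rest.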
measured-property: outcome

Recorded results for 5 compounds are shown here.
Problem: Answer with reported outcome of `O=[N+]([O-])c1cnc2ccccc2c1Sc1ccccc1`
Result: inactive

Problem: Answer with reported outcome of `O=c1oc2ccccc2c(Nc2cc(Cl)cc(Cl)c2)c1[N+](=O)[O-]`
Result: inactive

Problem: Answer with reported outcome of `Cc1ccc(Sc2c([N+](=O)[O-])c(=O)n(C)c3ccccc23)cc1`
Result: inactive

Problem: Answer with reported outcome of `Cn1c(=O)c([N+](=O)[O-])c(Oc2ccccc2)c2ccccc21`
Result: inactive

Problem: Answer with reported outcome of `Cn1c(=O)c([N+](=O)[O-])c(-n2cnc3ccccc32)c2ccccc21`
Result: inactive

Hey, quick one: what's outcome for each of these?
1. O=c1oc2ccccc2c(Sc2ccccc2)c1[N+](=O)[O-]
2. CN1C(=O)C(C)(C)N(Cc2ccccc2)c2ccccc21
3. CCSc1c([N+](=O)[O-])c(=O)oc2ccccc12
4. O=c1oc2ccccc2c(N2CCCCC2)c1[N+](=O)[O-]
5. Cc1ccc(Sc2c([N+](=O)[O-])c(=O)oc3ccccc23)cc1

Result:
1. inactive
2. inactive
3. inactive
4. inactive
5. inactive

Problem: Answer with reported outcome of `CCOCCCNc1c([N+](=O)[O-])c(=O)n(C)c2ccccc12`
Result: inactive

====

# protocol-text: apoptosis induction in mouse embryonic fibroblasts – cell-based, wild-type MEF, caspase luminescence, dry powder, set 2, counter-screen for Bcl2-A1 inhibitor project, dose response (AID 504392)
# condition-set: CaspaseGlo luminescence, 3 h; series mostly up to 35 µM
The source made the active and inactive calls.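 The calls were made as follows: active = fitted curve rising past 10% caspase activation at or below the top valid dose; inactive = activity opposite to the expected rise, or the rest.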
measured-property: outcome

Problem: Answer with reported outcome of `Cc1ccc(Nc2c([N+](=O)[O-])c(=O)n(C)c3ccccc23)cc1`
Result: inactive

Problem: Answer with reported outcome of `Cn1c(=O)c([N+](=O)[O-])c(Nc2ccc(Cl)cc2)c2ccccc21`
Result: inactive

Problem: Answer with reported outcome of `O=C(Oc1cccc(/C=N/Nc2nc(Nc3ccccc3)nc(N3CCOCC3)n2)c1)c1ccco1`
Result: inactive
